- measured-on: A1 receptor (Homo sapiens, UniProt P30542)
- Sequence (P30542 whole entry): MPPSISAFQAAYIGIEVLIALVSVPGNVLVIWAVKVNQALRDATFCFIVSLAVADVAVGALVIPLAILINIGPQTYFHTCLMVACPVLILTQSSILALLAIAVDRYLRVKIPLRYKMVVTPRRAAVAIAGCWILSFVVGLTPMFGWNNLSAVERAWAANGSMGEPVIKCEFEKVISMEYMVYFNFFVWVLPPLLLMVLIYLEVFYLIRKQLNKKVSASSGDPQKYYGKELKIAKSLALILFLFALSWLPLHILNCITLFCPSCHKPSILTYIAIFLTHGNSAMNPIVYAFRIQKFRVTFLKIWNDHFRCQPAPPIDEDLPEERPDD
- run-description: Adenosine A1 receptor affinity (Ki potency)
- Assay type: binding
property-name: pKi
Scale: pKi equals -log10([C]), with [C] in mol/L.

Q: Need pKi, item O=[N+]([O-])OC[C@H]1O[C@@H](n2cnc3c(NC4CCOC4)ncnc32)[C@H](O)[C@@H]1O (stereo partly shown)
Ans: 7.97

Q: Need pKi, item `O=S(=O)(O)OC[C@H]1O[C@@H](n2cnc3c(NC4CCCC4)ncnc32)[C@H](O)[C@@H]1O`
Ans: 8.39

Q: Need pKi, item `O=[N+]([O-])OC[C@H]1O[C@@H](n2cnc3c(NC4CCCCC4)ncnc32)[C@H](O)[C@@H]1O`
Ans: 8.88

Q: Need pKi, item `O=S(=O)(O)OC[C@H]1O[C@@H](n2cnc3c(NC4CCCCC4)nc(Cl)nc32)[C@H](O)[C@@H]1O`
Ans: 8.87
